Test system: monocytic THP1 cells infected with HIV VSV-G pseudotyped GFP-NEF reporter virus
Test: cells
Assay type: cell-based
Conditions: Human immunodeficiency virus 1, THP-1, 24 h
pEC50: −log10 of the molar value.
// n strictly below 7 in pEC50; y otherwise

Threshold query (pEC50 >= 7) on Cc1cc(/C=C/C#N)cc(C)c1Oc1nc(NC23CC(C#N)(C2)C3)nc2c1C(C)NC2=O (stereo not shown) [Compound 136]
y

Check if pEC50 >= 7 (inclusive). Item: Cc1cc(/C=C/C#N)c(C(F)(F)F)c(C)c1Oc1nc(NC23CC(C#N)(C2)C3)nc2nn(C)cc12 [Compound 4]
n

Threshold query (pEC50 >= 7) on Cc1cc(/C=C/C#N)cc(C)c1Oc1nc(NC23CC(C#N)(C2)C3)nc2c1[C@@]1(C)O[C@@H]3CC[C@@H]3N1C2=O (single isomer, unassigned) [Compound 283]
y

I'd appreciate it if you could say whether Cc1cc(/C=C/C#N)cc(C)c1Oc1nc(NC23CC(C#N)(C2)C3)nc2c(C)nn(C)c12 [Compound 121] has pEC50 at least equal to 7.
y

----------
Test system: monocytic THP1 cells infected with HIV VSV-G pseudotyped GFP-NEF reporter virus
Experiment: cells
Type: cell-based
Conditions: Human immunodeficiency virus 1, THP-1, 24 h
endpoint.name: EC50
A bare number is not enough; add the unit after it.

Memo: COC1NC(=O)c2nc(NC34CC(C#N)(C3)C4)nc(Oc3c(C)cc(/C=C/C#N)cc3C)c21 (stereo not shown) [Compound 287] , reported EC50: 26.2 nM

For record Cc1cc(/C=C/C#N)cc(C)c1Oc1nc(NC23CC(C#N)(C2)C3)nc2nc3n(c12)C[C@@H](C)CO3 [Compound 186] the listed EC50 is 92 nM

The recorded EC50 for Cc1cc(/C=C/C#N)cc(C)c1Oc1nc(NC23CC(C#N)(C2)C3)nc2c1[C@@]1(C)O[C@@H](C)CN1C2=O (single isomer, unassigned) [Example 249] is 75.7 nM

The molecule listed as Cc1cc(/C=C/C#N)cc(C)c1Oc1nc(NC23CC(C#N)(C2)C3)nc2nn(-c3ccn(C)n3)cc12 [Example 231] has a reported EC50 of 31.1 nM

Consider Cc1cc(/C=C/C#N)cc(C)c1Oc1nc(NC23CC(C#N)(C2)C3(F)F)nc2nn(C)cc12 [Compound 76] . Its measured EC50 is 25.3 nM

# EC50 (molecule: COc1n[nH]c2nc(NC34CC(C#N)(C3)C4)nc(Oc3c(C)cc(/C=C/C#N)cc3C)c12 [Compound 109] ) is 200 nM

So, Cc1cc(/C=C/C#N)cc(C)c1Oc1nc(NC23CC(C#N)(C2)C3)nc2cnn(C)c12 [Compound 122] ? Its EC50 was 54 nM

----------
Test system: monocytic THP1 cells infected with HIV VSV-G pseudotyped GFP-NEF reporter virus
Assay: cells
Type: cell-based
Details: Human immunodeficiency virus 1, THP-1, 24 h
Friendly reminder: EC50 below 80 nM is 1, at or above is -1.

Determine whether this compound shows EC50 lower than 80 nM (ties excluded): Cc1cc(/C=C/C#N)cc(C)c1Oc1nc(NC23CC(C#N)(C2)C3)nc2c1[C@@H](C(F)(F)F)NC2=O
1

State whether 80 nM exceeds EC50 recorded for Cc1cc(/C=C/C#N)cc(C)c1Oc1nc(NC23CC(C#N)(C2)C3)nc2c1[C@H](C)NC2=O .
1

Would you kindly verify if EC50 of Cc1cc(/C=C/C#N)cc(C)c1Oc1nc(NC23CC(C#N)(C2)C3)nc2scnc12 is strictly less than 80 nM?
-1

Lab note: EC50 threshold 80 nM. Does this compound come in strictly under it? Cc1cc(/C=C/C#N)cc(C)c1Oc1nc(NC23CC(C#N)(C2)C3)nc2nn3c(c12)COCC3
1

In plain terms, does Cc1cc(/C=C/C#N)cc(C)c1Oc1nc(NC23CC(C#N)(C2)C3)nc2nc(-c3cnn(C)c3)[nH]c12 come in under 80 nM for EC50?
-1

EC50 strictly < 80 nM for this compound? CCN1C(=O)c2nc(NC34CC(C#N)(C3)C4)nc(Oc3c(C)cc(/C=C/C#N)cc3C)c2C1C (centres unmarked)
1

In the record for Cc1cc(/C=C/C#N)cc(C)c1Oc1nc(NC23CC(C#N)(C2)C3)nc2c1C1(C)OCC3(COC3)CN1C2=O (centres unmarked) , is EC50 less than 80 nM?
1

In plain terms, does Cc1nc2c(Nc3c(C)cc(/C=C/C#N)cc3C)nc(NC34CC(C#N)(C3)C4)nc2s1 come in under 80 nM for EC50?
-1

Does Cc1cc(/C=C/C#N)cc(C)c1Oc1nc(NC23CC(C#N)(C2)C3)nc2[nH]nc(C3CC3)c12 have EC50 strictly under 80 nM?
-1

Does this compound meet the criterion EC50 < 80 nM? Cc1cc(/C=C/C#N)cc(C)c1Oc1nc(NC23CC(C#N)(C2)C3)nc2c1nc(C)n2Cc1ccn[nH]1 (single isomer, unassigned)
-1

Problem: For the compound Cc1cc(/C=C/C#N)cc(C)c1Oc1nc(NC23CC(C#N)(C2)C3)nc2c1C1(C)OC[C@@H](C)CN1C2=O (single isomer, unassigned) , is EC50 under 80 nM?
-1

Does Cc1cc(/C=C/C#N)cc(C)c1Nc1nc(NC23CC(C#N)(C2)C3)nc2scnc12 have EC50 strictly under 80 nM?
1
